Organism: Rattus norvegicus
method-description: Maximum concentration in rat
Format: ADME, organism-based
run-parameters: in vivo
measured-endpoint: Cmax (µM)
Give just the number in µM; leave the unit off.

Guide cases for Cmax, answers given:
compound: COc1cc(/C=C/C(=O)N2CCN(Cc3ccc(F)cc3)C[C@H]2C)c(NC(C)=O)cc1Cl
Cmax [µM]: 0.396
--
compound: C[C@@H]1CN(Cc2ccc(F)cc2)CCN1C(=O)COc1ccc(Cl)cc1NC(N)=O.Cl [BX 471]
Cmax [µM]: 0.4

Continue with the compound presented below.
(Q) What value of Cmax has been reported for the following compound? CN(C)CC(=O)Nc1cc(Cl)ccc1/C=C/C(=O)N1C2CCC1CN(Cc1ccc(F)cc1)C2
(A) 0.407

###

target-entity: C-C chemokine receptor type 1 (Homo sapiens, UniProt P32246)
Sequence (P32246 whole entry): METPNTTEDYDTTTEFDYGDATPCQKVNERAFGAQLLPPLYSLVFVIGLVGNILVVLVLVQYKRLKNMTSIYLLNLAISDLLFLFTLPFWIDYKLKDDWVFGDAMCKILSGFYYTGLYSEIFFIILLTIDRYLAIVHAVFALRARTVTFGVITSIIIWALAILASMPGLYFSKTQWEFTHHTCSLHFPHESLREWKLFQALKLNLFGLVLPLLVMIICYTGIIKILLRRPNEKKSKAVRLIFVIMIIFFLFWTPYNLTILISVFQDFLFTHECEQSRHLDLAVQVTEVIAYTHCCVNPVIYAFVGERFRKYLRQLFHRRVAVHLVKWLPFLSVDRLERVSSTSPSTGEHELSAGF
method-description: Antagonistic activity at human CCR1 in CHO-K1 cells
Type: functional, cell-based
measured-endpoint: IC50 (nM)
Give just the number in nM; leave the unit off.

Guide cases for IC50, answers given:
compound: COc1cc2c(cc1Cl)NC(=O)NC2CC(=O)N1CCN(Cc2ccc(F)cc2)C[C@H]1C (stereo not given in full)
measured-endpoint: IC50
numeric-readout: 800
--
compound: CC(=O)Nc1cc(Cl)ccc1CCC(=O)N1CCN(Cc2ccc(F)cc2)C[C@H]1C
measured-endpoint: IC50
numeric-readout: 360
--
compound: CC(=O)Nc1cc(Cl)ccc1/C=C/C(=O)N1CC2CCC(C1)N2Cc1ccc(F)cc1
measured-endpoint: IC50
numeric-readout: 300
--
compound: COc1cc(/C=C/C(=O)N2C3CCC2CN(Cc2ccc(F)cc2)C3)c(NC(C)=O)cc1Cl
measured-endpoint: IC50
numeric-readout: 7

Continue with the compound presented below.
(Q) What value of IC50 has been reported for the following compound? CC(=O)Nc1cc2ncccc2cc1/C=C/C(=O)N1CCN(Cc2ccc(F)cc2)C[C@H]1C
(A) 30

Ref: ChEMBL document CHEMBL1141202
